- target system: HIST1H4B
- procedure text: pooled miR-30 sensor sort-seq; sequence = guide strand; further: reference of the scale not given here
- protocol conditions: shRNA
I'd be grateful if you could share measured sensor-assay potency score (higher = more potent) for these entries.
Give bare numbers.

Consider the reported sensor-assay potency score (higher = more potent) for these sequences:
TTATCCCGCAGCACTTTTCGGT; -0.874
TCTCCTCATAAATCAAACCGGA; -1.02
AATCAAACCGGAAATTCGCTTA; 0.0174

Now take the following sequence into account.
**Q:** Give sensor-assay potency score (higher = more potent) for TAAACCACATCCATGGCAGTGA
**A:** 0.196

====

I'd be grateful if you could share measured sensor-assay potency score (higher = more potent) for these entries.
- target system: ETS1
- procedure text: pooled miR-30 sensor sort-seq; sequence = guide strand
- protocol conditions: shRNA
Numbers only.

Consider the reported sensor-assay potency score (higher = more potent) for these sequences:
TTTTGTCGTAATAGTAGCGTAG; -0.397
TATCGTAGCTCTCTATGCTTTC; -0.783
TTCTGCAAGGTGTCTGTCTGGA; 0.532
ATCTGCACATTCCATATCCGGG; -1.42
TTTGATAGCAAAGTAGTCATTC; -0.303

Working through the 6 sequences below one at a time, give sensor-assay potency score (higher = more potent) for each.
1. TTTATCAGTGAGTAATTCCAGA
2. TATGCTTTCAAAAGAGTCCTGG
3. TAGAGTGATAGGTAAATAGTTC
4. TAGTCCTCTGAGTCGAAGCTGT
5. TAGCAAAGTAGTCATTCTGCAA
6. TTGTTTGATAGCAAAGTAGTCA

**A:**
1. -0.449
2. 0.343
3. -0.916
4. -0.809
5. -0.233
6. -0.385
